# System Name: Albumin (Homo sapiens, UniProt P02768)
# Sequence (P02768 whole entry): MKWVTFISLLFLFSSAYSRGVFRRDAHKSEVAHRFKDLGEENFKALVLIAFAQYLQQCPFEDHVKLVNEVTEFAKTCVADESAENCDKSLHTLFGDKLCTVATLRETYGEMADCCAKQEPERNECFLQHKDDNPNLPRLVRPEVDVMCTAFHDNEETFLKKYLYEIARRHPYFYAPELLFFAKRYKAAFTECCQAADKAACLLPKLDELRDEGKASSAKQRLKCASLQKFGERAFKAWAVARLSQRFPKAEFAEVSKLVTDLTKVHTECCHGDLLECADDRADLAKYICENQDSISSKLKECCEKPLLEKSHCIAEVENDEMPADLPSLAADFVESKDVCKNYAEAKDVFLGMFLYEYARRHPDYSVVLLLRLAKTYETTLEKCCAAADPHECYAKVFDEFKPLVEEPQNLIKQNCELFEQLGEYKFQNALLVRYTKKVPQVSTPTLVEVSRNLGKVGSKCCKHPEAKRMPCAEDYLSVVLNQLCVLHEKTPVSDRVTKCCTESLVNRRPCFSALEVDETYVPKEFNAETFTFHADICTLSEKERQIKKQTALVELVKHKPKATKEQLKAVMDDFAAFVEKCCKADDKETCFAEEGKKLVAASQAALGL
# Assay Explanation: Binding affinity to human serum albumin by fluorescence polarization assay
pKi: −log10 of the molar value.
Reported Endpoint: pKi

[[record]]
smiles_record = "NCCOCCOCCNC(=O)c1cccc(NC(=O)OC2CCN(C(=O)c3ccc(-c4nc5ccccc5[nH]4)cc3)CC2)c1"
system_name = "Albumin (Homo sapiens, UniProt P02768)"
reported_endpoint = "pKi"
measured_number = 7.30


====

# Assay Explanation: Solubility of the compound
# Type: physicochemical
Reported Endpoint: solubility

[[record]]
smiles_record = "NCCOCCOCCNC(=O)c1cccc(NC(=O)OC2CCN(C(=O)c3ccc(-c4nc5ccccc5[nH]4)cc3)CC2)c1"
reported_endpoint = "solubility"
result = "54 µg/mL"

